compounds and their reported melting point

compound	melting point
NCCC(N)c1ccccc1C(F)(F)F (stereo not drawn)	213 to 217 °C
CC(=O)OCC(COC(C)=O)NC(=O)c1c(I)c(C(=O)NC(COC(C)=O)COC(C)=O)c(I)c(N2CCC(Br)C2=O)c1I (stereo not drawn)	232 to 234 °C
CCC(C)C=O (stereo not drawn)	-60 °C
Brc1c(Br)c(Br)c(Oc2nc(Oc3c(Br)c(Br)c(Br)c(Br)c3Br)nc(Oc3c(Br)c(Br)c(Br)c(Br)c3Br)n2)c(Br)c1Br	320 to 325 °C
CC(CCC(=O)O)C1CCC2C3C(O)CC4CC(NC(=O)CNC(=O)CN(CCN(CC(=O)O)CC(=O)O)CCN(CC(=O)O)CC(=O)O)CCC4(C)C3CC(O)C12C (stereo not drawn)	120 to 125 °C

Record CCCCCCCCCCCCCC=CC(OC(=O)c1ccccc1)C(COC1OC(CO)C(OCCC(C(=O)OC(C)(C)C)C(=O)OC(C)(C)C)C(O)C1O)NC(=O)CCCCCCCCCCCCCCC (stereo not drawn) , field melting point: 48 to 50 °C

Record Nc1nc2sc(Cc3ccccc3)cc2c(=O)[nH]1 , field melting point: 294 to 296 °C

Record CC(C)[Si](OC(=O)Cc1cc(I)c(Oc2cc(I)c(O)c(I)c2)c(I)c1)(C(C)C)C(C)C , field melting point: 146 °C

* * *

quantity.measured: melting point

Example entries begin here.
molecule	melting point
CCCCCCCCCCCCCCCCNc1ccc(C(=O)OCC(COC(=O)c2ccc(NCCCCCCCCCCCCCCCC)cc2)OC(=O)c2ccc(NCCCCCCCCCCCCCCCC)cc2)cc1	117 to 118 °C
CCOc1ccc(C(=CC2(C=C(c3ccc(OCC)cc3)c3ccc(N4CCCC4)cc3)OC(=O)c3c(Cl)c(Cl)c(Cl)c(Cl)c32)c2ccc(N3CCCC3)cc2)cc1 (stereo not drawn)	221 to 223 °C

Switching to the query record.
Record C=C1C(n2ccc(NC(=O)CCCCCCCCCCCCCCCCC)nc2=O)OC(COC(=O)CCCCCCCCCCCCCCCCC)C1(O)C(=O)CCCCCCCCCCCCCCCCC (stereo not drawn) , field melting point: 92 to 96 °C

* * *

molecules and their reported melting point
Residues, ends and D or L forms follow the SMILES beside them. *: point of attachment. Boc = CC(C)(C)OC(=O)*; Bn = c1ccc(C*)cc1

molecule	melting point
CC(NC(=O)C(Cc1ccc(OCc2ccccc2)cc1)NC(=O)C(COCc1ccccc1)NC(=O)C(Cc1c[nH]c2ccccc12)NC(=O)OC(C)(C)C)C(N)=O (stereo not drawn) (Boc-WS(Bn)Y(Bn)A-NH2; configuration not given here)	180 to 185 °C
COC(=O)CNC(=O)[C@H](NC(=O)[C@@H](CSC(c1ccccc1)(c1ccccc1)c1ccccc1)NC(=O)[C@@H](CCCCNC(=O)OC(C)(C)C)NC(=O)C[C@H](O)C=CCCSC(c1ccccc1)(c1ccccc1)c1ccccc1)C(C)C	85 to 87 °C

Switching to the query record.
Record O=C(O)CCC(CC=Cc1ccc(Cl)cc1)(C(=O)C=Cc1ccc(Cl)cc1)c1ccccc1 (stereo not drawn) , field melting point: 178 to 180 °C

* * *

compounds and their reported melting point

compound	melting point
CCCCOC(=O)C(C)(C)Oc1ccc(-c2nc(-c3ccc(OC(C)(C)C(=O)OCCCC)cc3O)nc(-c3ccc(OC(C)(C)C(=O)OCCCC)cc3O)n2)c(O)c1	86 to 91 °C
CC(OC(C)C(I)=C(I)I)C(I)=C(I)I (stereo unspecified)	43.5 to 44.5 °C
CC(COC(=O)CCc1cc(C(C)(C)C)c(O)c(C(C)(C)C)c1)(COC(=O)CCc1cc(C(C)(C)C)c(O)c(C(C)(C)C)c1)COC(=O)CCc1cc(C(C)(C)C)c(O)c(C(C)(C)C)c1	55 to 78 °C
CCCCCCCC/C=C\CCCCCCCCNC(=O)OCCCCCCCCCCCCNC(=O)OC1CCN(C(=O)Oc2ccc(Oc3ccccc3)cc2)CC1	83 to 84 °C

Switching to the query record.
Record Nc1cc(C(F)(F)C(F)(F)OC(F)(F)C(F)(F)OC(F)(F)C(F)(F)OC(F)(F)C(F)(F)C(F)(F)C(F)(F)C(F)(F)OC(F)(F)C(F)(F)c2ccc(O)c(N)c2)ccc1O , field melting point: 92 to 95 °C
